Target: NAD-dependent protein deacetylase sirtuin-2 (Homo sapiens)
Experiment: Inhibition of human SIRT2 by fluorogenic assay
Design: concentration or dose not given beside the values
READOUT_LABEL: Activity (%)
Provide the reading as a plain figure in %.

Solved entries:
# COMPOUND, MEASURED_ON, Activity / %
measured = [
    ("NC(=O)c1cccnc1", "NAD-dependent protein deacetylase sirtuin-2 (Homo sapiens)", 26),
    ("COCC#CC1c2cc(O)c(OC)cc2CCN1C (centres undefined)", "NAD-dependent protein deacetylase sirtuin-2 (Homo sapiens)", 92.1),
    ("Cc1cc(Cl)c(O)c(Cc2c(O)c(Cl)cc(Cl)c2Cl)c1Cl", "NAD-dependent protein deacetylase sirtuin-2 (Homo sapiens)", 18.5),
]

Memo: O=C(O)CCN1Cc2ccccc2C1=O , reported Activity: 89

----------
Molecular target: NAD-dependent protein deacetylase HST2 (Saccharomyces cerevisiae S288c) (UniProt P53686)
Sequence (P53686 whole entry): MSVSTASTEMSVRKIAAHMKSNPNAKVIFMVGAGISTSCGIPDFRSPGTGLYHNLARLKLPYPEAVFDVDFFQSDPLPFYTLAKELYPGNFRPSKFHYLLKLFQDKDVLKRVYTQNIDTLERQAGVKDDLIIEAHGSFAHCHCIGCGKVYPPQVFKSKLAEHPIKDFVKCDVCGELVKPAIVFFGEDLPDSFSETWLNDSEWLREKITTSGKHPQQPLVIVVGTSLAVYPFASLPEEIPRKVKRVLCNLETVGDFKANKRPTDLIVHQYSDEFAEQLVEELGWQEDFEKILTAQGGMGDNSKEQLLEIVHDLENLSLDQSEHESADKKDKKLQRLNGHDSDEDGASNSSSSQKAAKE
Assay: Inhibition of yeast Hst2 assessed as residual activity at 50 uM by fluorimetric assay relative to control
READOUT_LABEL: Activity (%)
Provide the reading as a plain figure in %.

Solved entries:
# COMPOUND, DISPLAY_UNIT, Activity
records = [
    ("CCc1ccc(OCCCC(=O)Oc2ccc3c(C)cc(=O)oc3c2)cc1", "%", 86),
    ("Cc1c(Cl)c(=O)oc2cc(OC(=O)CCCOc3ccc(Cl)cc3Cl)ccc12", "%", 90),
    ("C#C[C@H]1c2cc(O)c(OC)cc2CCN1C", "%", 96),
]

Memo: Cc1ccc(OCCCC(=O)Oc2ccc3c(C)cc(=O)oc3c2)cc1 , reported Activity: 99

----------
Biological target: NAD-dependent protein deacetylase HST2 (Saccharomyces cerevisiae S288c)
Assay: Inhibition of yeast Hst2 assessed as residual activity at 50 uM by fluorimetric assay relative to control
Below: a set of entries, each annotated with reported Activity.

Solved entries:
# MOLECULE, EXPERIMENTAL_VALUE
measured = [
    ("COc1ccc(OCCCC(=O)Oc2ccc3c(c2)CCC3)cc1", "95%"),
    ("Cc1cc(Cc2cc(C)c(O)c(C)c2)cc(C)c1O", "89%"),
]

Continue with the next molecule.
Memo: OC(c1ccccc1)c1ccc(C(F)(F)F)cc1 (stereo not drawn) , reported Activity: 100%

----------
Target: NAD-dependent protein deacetylase sirtuin-1 (Homo sapiens)
Sequence (Q96EB6 whole entry): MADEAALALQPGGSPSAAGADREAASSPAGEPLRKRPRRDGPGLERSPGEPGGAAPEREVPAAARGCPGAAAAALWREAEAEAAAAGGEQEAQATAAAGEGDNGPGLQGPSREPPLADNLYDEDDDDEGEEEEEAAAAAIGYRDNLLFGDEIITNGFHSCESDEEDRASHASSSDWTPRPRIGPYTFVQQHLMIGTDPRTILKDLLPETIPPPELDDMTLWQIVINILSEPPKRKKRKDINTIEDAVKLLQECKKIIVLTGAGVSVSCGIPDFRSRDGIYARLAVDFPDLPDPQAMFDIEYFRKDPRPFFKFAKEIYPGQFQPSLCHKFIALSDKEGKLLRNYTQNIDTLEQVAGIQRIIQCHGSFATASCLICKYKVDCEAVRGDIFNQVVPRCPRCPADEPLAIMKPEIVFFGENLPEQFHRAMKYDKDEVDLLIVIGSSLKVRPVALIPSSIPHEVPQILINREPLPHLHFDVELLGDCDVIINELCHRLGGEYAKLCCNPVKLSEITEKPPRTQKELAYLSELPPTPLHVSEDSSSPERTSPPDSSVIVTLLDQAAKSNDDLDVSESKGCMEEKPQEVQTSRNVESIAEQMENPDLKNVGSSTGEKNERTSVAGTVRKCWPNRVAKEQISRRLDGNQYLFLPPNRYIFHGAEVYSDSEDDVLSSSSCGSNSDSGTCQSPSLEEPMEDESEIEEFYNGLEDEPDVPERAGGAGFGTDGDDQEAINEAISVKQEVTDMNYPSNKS
Test: Inhibition of human full length SIRT1 expressed in DE3 cells by fluorimetric assay
READOUT_LABEL: IC50 (µM)
Provide the reading as a plain figure in µM.

# COMPOUND, MEASURED_ON, EXPERIMENTAL_VALUE
data = [
    ("Cc1cc(Cl)c(O)c(Cc2c(O)c(Cl)cc(Cl)c2Cl)c1Cl", "NAD-dependent protein deacetylase sirtuin-1 (Homo sapiens)", 34),
]

Memo: Cc1ccc2[nH]c3c(c2c1)CCCCC3C(N)=O (configuration not stated) , reported IC50: 0.64

----------
Biological target: NAD-dependent protein deacetylase HST2 (Saccharomyces cerevisiae S288c, UniProt P53686)
Sequence (P53686 whole entry): as the sequence (P53686 whole entry) above
Experiment: Mixed inhibition of yeast Hst2 using Acetyl-lysine substrate
READOUT_LABEL: pKi
Schema: pKi number; meaning minus log10 of the concentration expressed in molar units.

Memo: Cc1cc(Cl)c(O)c(Cc2c(O)c(Cl)cc(Cl)c2Cl)c1Cl , reported pKi: 5.60

----------
Molecular target: NAD-dependent protein deacetylase HST2 (Saccharomyces cerevisiae S288c) (UniProt P53686)
Assay: Inhibition of yeast Hst2 assessed as residual activity at 50 uM by fluorimetric assay relative to control
READOUT_LABEL: Activity
I'd appreciate it if you wrote the number followed by its unit.

# COMPOUND, Activity
records = [
    ("Cc1ccc(OCCCC(=O)Oc2ccc3c(c2)CCC3)c(C)c1", "93%"),
    ("Oc1c(Cc2ccccc2Cl)ccc2cccnc12", "100%"),
    ("C#C[C@@H]1c2cc(O)c(OC)cc2CCN1C", "97%"),
    ("Cc1cccc(OCC(=O)Oc2ccc3c(C)cc(=O)oc3c2)c1", "90%"),
    ("COC/C=C/C1c2cc(O)c(OC)cc2CCN1C (configuration not stated)", "97%"),
    ("Oc1ccc(Cc2ccccc2)cc1", "100%"),
]

Continue with the next compound.
Memo: C#CC1c2cc(O)c(OC)cc2CCN1C (configuration not stated) , reported Activity: 100%

----------
Molecular target: NAD-dependent protein deacetylase HST2 (Saccharomyces cerevisiae S288c) (UniProt P53686)
Test: Inhibition of yeast Hst2 assessed as residual activity at 50 uM by fluorimetric assay relative to control
READOUT_LABEL: Activity (%)
Provide the reading as a plain figure in %.

Solved entries:
# COMPOUND, DISPLAY_UNIT, Activity
rows = [
    ("Cc1cc(=O)oc2cc(OC(=O)COc3ccccc3)ccc12", "%", 91),
    ("COc1ccc(OCCCC(=O)Oc2ccc3c(C)cc(=O)oc3c2)cc1", "%", 93),
    ("COCCCC1c2cc(O)c(OC)cc2CCN1C (stereo not drawn)", "%", 99),
    ("Nc1cccc(Cc2cccc(N)c2)c1", "%", 100),
]

Memo: Cc1c(Cl)c(=O)oc2cc(OC(=O)CCNC(=O)Oc3ccccc3)ccc12 , reported Activity: 100

Memo: COCC#CC1(C)c2cc(O)c(OC)cc2CCN1C (stereo not drawn) , reported Activity: 100

Memo: Cc1ccc(OCCCC(=O)Oc2ccc3c(C)cc(=O)oc3c2)c(C)c1 , reported Activity: 90

Memo: COc1cc2c(cc1O)CN(C)CC2 , reported Activity: 100
